These entries and their values trace back to BindingDB's records for doi:10.1016/j.bioorg.2016.01.004.

Acetylcholinesterase (Electrophorus electricus) IC50 data
Sequence (O42275 whole entry): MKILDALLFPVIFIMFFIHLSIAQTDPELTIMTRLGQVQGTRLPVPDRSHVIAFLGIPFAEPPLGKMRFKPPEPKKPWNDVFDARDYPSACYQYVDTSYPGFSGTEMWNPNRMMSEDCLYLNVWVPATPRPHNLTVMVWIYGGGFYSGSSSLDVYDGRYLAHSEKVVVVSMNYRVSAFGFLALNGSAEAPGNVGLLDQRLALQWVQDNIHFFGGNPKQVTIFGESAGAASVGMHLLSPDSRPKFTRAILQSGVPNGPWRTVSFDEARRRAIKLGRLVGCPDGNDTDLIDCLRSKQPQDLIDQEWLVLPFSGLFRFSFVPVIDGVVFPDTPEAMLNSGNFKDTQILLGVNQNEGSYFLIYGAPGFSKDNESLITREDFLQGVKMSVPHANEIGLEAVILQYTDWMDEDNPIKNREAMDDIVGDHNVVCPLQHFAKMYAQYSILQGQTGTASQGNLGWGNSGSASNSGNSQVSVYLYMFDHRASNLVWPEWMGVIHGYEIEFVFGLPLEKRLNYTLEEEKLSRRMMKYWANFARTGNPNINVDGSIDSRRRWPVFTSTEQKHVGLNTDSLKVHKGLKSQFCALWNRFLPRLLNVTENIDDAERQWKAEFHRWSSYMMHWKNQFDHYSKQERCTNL
State just the number; it will be interpreted in µM.

Previously resolved entries follow.
State its IC50 on Acetylcholinesterase (Electrophorus electricus): COc1cccc(C2=C(C#N)C(=C(C#N)C#N)NC(C)(c3cccc(OC)c3)C2)c1 (configuration not stated) 1.56

State its IC50 on Acetylcholinesterase (Electrophorus electricus): COc1cccc(C2=C(C#N)C(=C(C#N)c3nnn[nH]3)NC(C)(c3cccc(OC)c3)C2)c1 (configuration not stated) 5.11

State its IC50 on Acetylcholinesterase (Electrophorus electricus): "CN(C)C(=O)Oc1cccc([N+](C)(C)C)c1" 19.3

State its IC50 on Acetylcholinesterase (Electrophorus electricus): CC1(c2ccc(I)cc2)CC(c2ccc(I)cc2)=C(C#N)C(=C(C#N)C#N)N1 (configuration not stated) 11.2

State its IC50 on Acetylcholinesterase (Electrophorus electricus): CC1(c2ccc(F)cc2)CC(c2ccc(F)cc2)=C(C#N)C(=C(C#N)c2nnn[nH]2)N1 (configuration not stated) 2.01

***
State its IC50 on Acetylcholinesterase (Electrophorus electricus): CC1(c2cccc(F)c2)CC(c2cccc(F)c2)=C(C#N)C(=C(C#N)C#N)N1 (configuration not stated) 8.01

State its IC50 on Acetylcholinesterase (Electrophorus electricus): CC1(c2ccc(O)cc2)CC(c2ccc(O)cc2)=C(C#N)C(=C(C#N)C#N)N1 (configuration not stated) 5.38

State its IC50 on Acetylcholinesterase (Electrophorus electricus): CC1(c2ccc(O)cc2)CC(c2ccc(O)cc2)=C(C#N)C(=C(C#N)c2nnn[nH]2)N1 (configuration not stated) 7.42

State its IC50 on Acetylcholinesterase (Electrophorus electricus): COc1ccccc1C1=C(C#N)C(=C(C#N)c2nnn[nH]2)NC(C)(c2ccccc2OC)C1 (configuration not stated) 20.3

State its IC50 on Acetylcholinesterase (Electrophorus electricus): CC1(c2ccccc2)CC(c2ccccc2)=C(C#N)C(=C(C#N)c2nnn[nH]2)N1 (configuration not stated) 7.02

State its IC50 on Acetylcholinesterase (Electrophorus electricus): CC1(c2ccccc2)CC(c2ccccc2)=C(C#N)C(=C(C#N)C#N)N1 (configuration not stated) 20.3

State its IC50 on Acetylcholinesterase (Electrophorus electricus): Cc1cccc(C2=C(C#N)C(=C(C#N)c3nnn[nH]3)NC(C)(c3cccc(C)c3)C2)c1 (configuration not stated) 20.8

State its IC50 on Acetylcholinesterase (Electrophorus electricus): CC1(c2cccc(Cl)c2)CC(c2cccc(Cl)c2)=C(C#N)C(=C(C#N)c2nnn[nH]2)N1 (configuration not stated) 2.32

State its IC50 on Acetylcholinesterase (Electrophorus electricus): Cc1ccc(C2=C(C#N)C(=C(C#N)c3nnn[nH]3)NC(C)(c3ccc(C)cc3)C2)cc1 (configuration not stated) 4.45

State its IC50 on Acetylcholinesterase (Electrophorus electricus): Cc1cccc(C2=C(C#N)C(=C(C#N)C#N)NC(C)(c3cccc(C)c3)C2)c1 (configuration not stated) 5.21

State its IC50 on Acetylcholinesterase (Electrophorus electricus): Cc1ccc(C2=C(C#N)C(=C(C#N)C#N)NC(C)(c3ccc(C)cc3)C2)cc1 (configuration not stated) 16.9

State its IC50 on Acetylcholinesterase (Electrophorus electricus): CC1(c2ccc(F)cc2)CC(c2ccc(F)cc2)=C(C#N)C(=C(C#N)C#N)N1 (configuration not stated) 11.9

---

Reported pIC50 values for the following molecules.
- SYSTEM: Carboxylic ester hydrolase (Equus caballus)
- Sequence (Q9N1N9 whole entry): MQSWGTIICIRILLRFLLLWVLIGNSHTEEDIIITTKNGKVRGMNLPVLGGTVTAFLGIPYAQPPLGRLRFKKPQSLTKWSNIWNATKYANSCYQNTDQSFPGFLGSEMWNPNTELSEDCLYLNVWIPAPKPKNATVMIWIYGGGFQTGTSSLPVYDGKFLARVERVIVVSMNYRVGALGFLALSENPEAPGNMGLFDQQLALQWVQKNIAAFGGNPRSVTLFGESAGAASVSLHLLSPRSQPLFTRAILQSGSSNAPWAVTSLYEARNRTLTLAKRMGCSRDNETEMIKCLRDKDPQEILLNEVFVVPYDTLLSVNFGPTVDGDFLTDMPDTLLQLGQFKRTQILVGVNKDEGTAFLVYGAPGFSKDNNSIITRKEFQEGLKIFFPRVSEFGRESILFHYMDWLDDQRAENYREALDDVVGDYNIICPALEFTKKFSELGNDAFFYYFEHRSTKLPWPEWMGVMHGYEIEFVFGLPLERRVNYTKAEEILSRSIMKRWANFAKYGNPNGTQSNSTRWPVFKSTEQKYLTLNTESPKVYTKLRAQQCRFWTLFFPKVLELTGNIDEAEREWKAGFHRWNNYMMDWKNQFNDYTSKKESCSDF
Value format note: pIC50 is -log10 of concentration (mol/L); just state the number.

Previously resolved entries follow.
State its pIC50 on Carboxylic ester hydrolase (Equus caballus): "CN(C)C(=O)Oc1cccc([N+](C)(C)C)c1" 4.36

State its pIC50 on Carboxylic ester hydrolase (Equus caballus): Cc1ccc(C2=C(C#N)C(=C(C#N)C#N)NC(C)(c3ccc(C)cc3)C2)cc1 (stereo not drawn) 4.44

State its pIC50 on Carboxylic ester hydrolase (Equus caballus): COc1cccc(C2=C(C#N)C(=C(C#N)C#N)NC(C)(c3cccc(OC)c3)C2)c1 (stereo not drawn) 4.32

State its pIC50 on Carboxylic ester hydrolase (Equus caballus): CC1(c2ccccc2)CC(c2ccccc2)=C(C#N)C(=C(C#N)C#N)N1 (stereo not drawn) 4.32

State its pIC50 on Carboxylic ester hydrolase (Equus caballus): CC1(c2ccc(F)cc2)CC(c2ccc(F)cc2)=C(C#N)C(=C(C#N)C#N)N1 (stereo not drawn) 4.26

***
State its pIC50 on Carboxylic ester hydrolase (Equus caballus): Cc1cccc(C2=C(C#N)C(=C(C#N)c3nnn[nH]3)NC(C)(c3cccc(C)c3)C2)c1 (stereo not drawn) 4.21

State its pIC50 on Carboxylic ester hydrolase (Equus caballus): COc1cccc(C2=C(C#N)C(=C(C#N)c3nnn[nH]3)NC(C)(c3cccc(OC)c3)C2)c1 (stereo not drawn) 4.41

State its pIC50 on Carboxylic ester hydrolase (Equus caballus): Cc1ccc(C2=C(C#N)C(=C(C#N)c3nnn[nH]3)NC(C)(c3ccc(C)cc3)C2)cc1 (stereo not drawn) 5.23
